- testedTarget: anti-H3K9me3 antibody ab8898
- assayRemarks: peptide microarray binding signal (635 nm), min-max normalized on array (fraction of array maximum); higher = stronger binding
- setupConditions: peptide region: Unmod H2B variant; binder concentration: 1:10,000 dilution
measuredProperty: peptide microarray binding signal
Respond numerically, and do not add a unit to the figure.

-- ask Could you share which peptide microarray binding signal value was measured for DGKKRKRSRKESY [Unmod H2B variant D G K K R K R S R K E S Y] ?
-- reply 0.000461

-- ask Could you share which peptide microarray binding signal value was measured for DIFERIASEASRL [Unmod H2B variant D I F E R I A S E A S R L] ?
-- reply 0.00121

-- ask Could you share which peptide microarray binding signal value was measured for AMSIMNSFVTDIF [Unmod H2B variant A M S I M N S F V T D I F] ?
-- reply 0.00571

-- ask Could you share which peptide microarray binding signal value was measured for APKKGSKKAITKA [Unmod H2B variant A P K K G S K K A I T K A] ?
-- reply 0.000634
